assay: NCI Yeast Anticancer Drug Screen. Data for the bub3 strain (AID 167); conditions: S. cerevisiae bub3 mutant strain, at 50.0 µM (retest, dose inferred, filed as 5.0)
The panel holds about 79,000 compounds, 15% with a hit somewhere; the sample as a whole holds those more often. Calls of active or inactive are those of the source. Rule as the data show it: active = growth inhibition above about 70%; inactive = the rest.
The categories you may choose from are 1 (yes) = active, 0 (no) = inactive

CCC[CH2][Sn]([CH2]CCC)([O]C(=O)c1c(F)cccc1F)[O]C(=O)c1c(F)cccc1F : 1 (yes)
CNc1ccc(N)cc1 : 0 (no)
N#CC1Oc2ccccc2N1C(=O)c1ccccc1 (stereo not given) : 0 (no)
CC1=NN(c2nc(N)nc(C(C)Sc3cc(Cl)c(C)cc3S(N)(=O)=O)n2)C(C)(C)C1 (stereo not given) : 0 (no)
Cc1c2c(c(C)c3ccncc13)S(=O)(=O)c1ccccc1-2 : 0 (no)

Query: recorded result category for COC(O)C(=O)c1c2c(cc3c1CC1(Cc4cc5c(cc4C1)CCC5)C3)CCC2 (stereo not given) in this test
1 (yes)

Query: recorded result category for CC(=O)Oc1cc2c(cc1OC(C)=O)OCC(c1ccc(C)cc1)C2 (stereo not given) in this test
1 (yes)

Query: recorded result category for Nc1ccc(-c2nc3ccccc3s2)cc1Br in this test
1 (yes)

Query: recorded result category for N#C/C(=C\c1c(Cl)cccc1Cl)c1ccccc1 in this test
0 (no)

Query: recorded result category for O=[N+]([O-])c1ccc2c(N=Nc3ccc4ccccc4c3O)c(O)cc(S(=O)(=O)O)c2c1 in this test
0 (no)

Query: recorded result category for CC(C)SCC1CO1 (stereo not given) in this test
0 (no)

Query: recorded result category for CC(NNC(=S)N1CC2CCC(CC2)C1)c1cc2ccccc2cn1 (stereo not given) in this test
1 (yes)

Query: recorded result category for Cc1cc(C(C)(CC(C)C)c2ccc(O)c(C)c2)ccc1O in this test
1 (yes)

Query: recorded result category for CCOC(=O)/C=C(\C)Sc1cc(O)c2ccccc2c1O in this test
0 (no)

Query: recorded result category for CCOC(=N)CCCSSc1ccc(N=[N+]=[N-])cc1 in this test
1 (yes)

Query: recorded result category for Cc1c2ccnc(C(N)=O)c2c(C)c2c1[nH]c1ccccc12 in this test
1 (yes)

Query: recorded result category for CCN(CC)C(=S)N/N=C/c1cc([N+](=O)[O-])ccc1O in this test
1 (yes)

Query: recorded result category for CCC(=O)OCC(=O)c1ccc(-c2ccccc2)cc1 in this test
0 (no)

Query: recorded result category for O=Nc1c(O)ccc2ccccc12.[Fe].[Na+] in this test
1 (yes)

Query: recorded result category for CCN(CC)CCOC(=O)Cc1cccc2c(=O)cc(-c3cccs3)oc12 in this test
0 (no)

Query: recorded result category for Nc1ccc(S(=O)(=O)O)c2cccc(S(=O)(=O)O)c12 in this test
0 (no)

Query: recorded result category for Nc1ccc(SSc2ccc(N)cc2)cc1 in this test
1 (yes)

Query: recorded result category for Oc1c(Cl)cc(Cl)c2cccnc12 in this test
1 (yes)

Query: recorded result category for COc1ccc(/C=N/Nc2ccccc2)cc1 in this test
1 (yes)

Query: recorded result category for N#C/C=C(\c1ccccc1)c1c[nH]c2ccccc12 in this test
1 (yes)

---

test: NCI Yeast Anticancer Drug Screen. Data for the sgs1 mgt1 strain (AID 161);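 also: 0% = growth of cultures given vehicle only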; conditions: S. cerevisiae sgs1 mgt1 strain, at 50.0 µM, hits give high values
The panel holds about 79,000 compounds, 15% with a hit somewhere; the sample as a whole holds those more often.
Label rule, in plain words: growth inhibition of 90% and up is criterion met, under 90% is criterion not met.

Example entries and their recorded answers appear below.
Cc1ccc(N=c2cc(-c3ccccc3)oc3ccccc23)c(C)c1 : criterion not met
CCCCCCCCCCCCCCCCNc1ccn(C2CC(OP(=O)(O)OCC3OC(n4cc(CC)c(=O)[nH]c4=O)CC3O)C(CO)O2)c(=O)n1 (centres undefined) : criterion not met
CC(=O)/C(=C\c1ccccc1Cl)C(=O)CCN(C)C : criterion not met
COc1cc(C(c2cc3c(cc2O)OCO3)N2CCOCC2)cc(OC)c1OC (centres undefined) : criterion not met
CC[N+]1=C(/C=C\c2cc(C)c3cccnc3c2O)C(C)(C)c2ccccc21 : criterion not met
Clc1ccc2[nH]c(-c3ccccc3)c(-c3ccccn3)c2c1 : criterion met
Cc1cccc2cc3c(cc12)c(C)cc1ccccc13 : criterion not met
COc1ccccc1/C=C\C(=O)c1ccccc1 : criterion met
O=C1C=CC(=O)N1C1CCCCC1 : criterion met
N#CC(C#N)=C(c1ccccc1)c1ccccc1 : criterion met

Check if growth inhibition >= 90% (inclusive). Item: O=C(O)Cc1ccccc1CCc1ccccc1Cl
criterion not met

Check if growth inhibition >= 90% (inclusive). Item: O=C(CC(=O)c1ccccc1)CC1(O)CCCCC1
criterion not met
